We begin with a simple list: items and their reported viability, T/C.
# System: LG0567-F671-PDC KRAS tumor spheroid viability;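 note: drug exposure lasted seven days after spheroids formed for three days; 100% = DMSO vehicle control viability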
# assay text: Anticancer human tumor LG0567-F671-PDC patient-derived lung adenocarcinoma cell line growth inhibition [KRAS2]
# condition notes: second compound 0.1 µM; first compound 0.1 µM; active compounds read low; spheroids with HUVEC and MSC
assay endpoint: viability, T/C (%)

- compound: "COc1cc(Nc2ncc3c(n2)-c2ccc(Cl)cc2C(c2c(F)cccc2OC)=NC3)ccc1C(=O)O + C=CC(=O)N1CCN(c2nc(=O)n(-c3c(C)ccnc3C(C)C)c3nc(-c4c(O)cccc4F)c(F)cc23)C(C)C1"
  measurement: 24.3
- compound: "CN(C)C/C=C/C(=O)Nc1cc2c(Nc3ccc(F)c(Cl)c3)ncnc2cc1O[C@H]1CCOC1 + C=CC(=O)N1CCN(c2nc(OCC3CCCN3C)nc3c2CCN(c2cccc4cccc(C)c24)C3)CC1CC#N"
  measurement: 18.5
- compound: "Cn1nccc1Nc1nccc(-c2cc3c(s2)C(C)(C)N(CCN2CCOCC2)C3=O)n1 + C=CC(=O)N1CCN(c2nc(OCC3CCCN3C)nc3c2CCN(c2cccc4cccc(C)c24)C3)CC1CC#N"
  measurement: 31.8
- compound: "Cn1ncnc1[C@H]1c2n[nH]c(=O)c3cc(F)cc(c23)N[C@@H]1c1ccc(F)cc1 + CC1OCC2(CCN(c3cnc(Sc4ccnc(N)c4Cl)c(N)n3)CC2)C1N"
  measurement: 54.9
- compound: "CC(=O)OC12COC1CC(O)C1(C)C(=O)C(O)C3=C(C)C(OC(=O)C(O)C(NC(=O)OC(C)(C)C)c4ccccc4)CC(O)(C(OC(=O)c4ccccc4)C21)C3(C)C (stereo not given) + COc1cc2nc(C)nc(NC(C)c3cc(N)cc(C(F)(F)F)c3)c2cc1OC1CCOC1"
  measurement: 53.9
